Please provide measured binding signal for the entries that follow.
- assay-target: AGO2 T357M (Homo sapiens, UniProt Q9UKV8 1-859, T357M;S387D;S824A;S828D;S831D;S834A)
- Sequence (Q9UKV8 whole entry T357M/S387D/S824A/S828D/S831D/S834A): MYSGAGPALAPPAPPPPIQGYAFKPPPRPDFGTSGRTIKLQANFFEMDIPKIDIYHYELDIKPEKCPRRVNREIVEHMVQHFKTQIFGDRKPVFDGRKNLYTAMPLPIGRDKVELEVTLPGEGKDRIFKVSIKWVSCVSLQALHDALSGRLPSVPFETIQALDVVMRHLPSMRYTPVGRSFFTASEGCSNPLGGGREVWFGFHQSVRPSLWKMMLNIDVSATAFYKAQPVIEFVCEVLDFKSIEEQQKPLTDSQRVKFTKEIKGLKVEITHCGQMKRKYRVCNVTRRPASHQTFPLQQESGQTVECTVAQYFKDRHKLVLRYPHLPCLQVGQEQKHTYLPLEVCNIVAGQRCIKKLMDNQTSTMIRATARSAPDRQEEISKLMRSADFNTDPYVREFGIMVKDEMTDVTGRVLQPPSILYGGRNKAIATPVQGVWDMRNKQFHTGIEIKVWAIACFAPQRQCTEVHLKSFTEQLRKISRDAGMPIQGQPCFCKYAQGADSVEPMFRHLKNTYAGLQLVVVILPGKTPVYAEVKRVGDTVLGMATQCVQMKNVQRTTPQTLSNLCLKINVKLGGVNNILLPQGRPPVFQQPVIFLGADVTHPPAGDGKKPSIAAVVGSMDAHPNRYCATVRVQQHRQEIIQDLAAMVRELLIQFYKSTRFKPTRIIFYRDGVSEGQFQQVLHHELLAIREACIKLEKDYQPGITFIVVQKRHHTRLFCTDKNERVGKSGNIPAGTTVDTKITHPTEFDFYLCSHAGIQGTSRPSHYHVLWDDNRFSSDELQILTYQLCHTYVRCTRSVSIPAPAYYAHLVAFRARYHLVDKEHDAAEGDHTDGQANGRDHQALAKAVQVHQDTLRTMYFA
- run-description: RNA Bind-n-Seq (nitrocellulose filter binding and sequencing); miR-122 guide loaded in AGO2; 60 min incubation; 30 mM Tris pH 8.0, 100 mM potassium acetate, 2 mM magnesium acetate, 0.5 mM TCEP, 0.005% NP-40, 0.01 mg/ml yeast tRNA; 3 nM AGO2-miR-122, 100 nM RNA library; 60; high values mean tight binding
- condition-parameters: protein: recombinant; tags: His6 (N-terminal, pFastBac HTA)

-- ask Return reported binding signal; argument: ACATCTTG (ssRNA, constant regions annealed to DNA blockers; guide miR-122 5' phosphate) RNA 1: GAGUUCUACAGUCCGACGAUCCCAACACAUCUUGCACCUGGAAUUCUCGGGUGCCAA RNA 2: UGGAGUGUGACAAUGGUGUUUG DNA 1: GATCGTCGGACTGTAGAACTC DNA 2: TTGGCACCCGAGAATTCCA
-- reply 0.458 fold enrichment over input

-- ask Return reported binding signal; argument: ATACTTCG (ssRNA, constant regions annealed to DNA blockers; guide miR-122 5' phosphate) RNA 1: GAGUUCUACAGUCCGACGAUCCCAACAUACUUCGCACCUGGAAUUCUCGGGUGCCAA RNA 2: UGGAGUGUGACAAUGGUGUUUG DNA 1: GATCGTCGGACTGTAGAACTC DNA 2: TTGGCACCCGAGAATTCCA
-- reply 0.509 fold enrichment over input

-- ask Return reported binding signal; argument: GCACCTCA (ssRNA, constant regions annealed to DNA blockers; guide miR-122 5' phosphate) RNA 1: GAGUUCUACAGUCCGACGAUCCCAACGCACCUCACACCUGGAAUUCUCGGGUGCCAA RNA 2: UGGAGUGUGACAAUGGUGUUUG DNA 1: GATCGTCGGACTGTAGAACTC DNA 2: TTGGCACCCGAGAATTCCA
-- reply 0.643 fold enrichment over input

-- ask Return reported binding signal; argument: GTGTCTTG (ssRNA, constant regions annealed to DNA blockers; guide miR-122 5' phosphate) RNA 1: GAGUUCUACAGUCCGACGAUCCCAACGUGUCUUGCACCUGGAAUUCUCGGGUGCCAA RNA 2: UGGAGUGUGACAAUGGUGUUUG DNA 1: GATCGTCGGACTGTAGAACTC DNA 2: TTGGCACCCGAGAATTCCA
-- reply 0.447 fold enrichment over input
